Just for reference, PubChem BioAssay (NCI) is where these values come from.

# Test system: HS 578T breast
# measurement_protocol: NCI tumour cell line growth inhibition, 48 h
measured_quantity: TGI

1) O=C(Nc1cccc(-n2cc(-c3ccncc3)c(-c3cc(O)cc(Cl)c3)n2)c1)c1cc(C(F)(F)F)cc(C(F)(F)F)c1 = > 100 µM
2) CC(C)C(C(=O)O)N1C(=O)c2ccccc2C1=O (centres undefined) = > 100 µM
3) Cc1ccc(NC(=O)c2cc(S(=O)(=O)Nc3n[nH]c(=O)[nH]3)c(SSc3cc(Cl)c(C(=O)Nc4ccc(C)cc4)cc3S(=O)(=O)Nc3n[nH]c(=O)[nH]3)cc2Cl)cc1 = > 100 µM
4) Oc1cccc2ccc(N/N=C/c3cc(CN4CCOCC4)c(O)c4ncccc34)nc12 = 17.2 µM
5) Cc1cc[n+]2c(c1)-c1cc(C)cc[n+]1CC2 = > 100 µM
6) CCOC(=O)CNC(=O)C(CSC(=O)N(O)c1ccc(Cl)cc1)NC(=O)CCC(N)C(=O)OCC (centres undefined) = > 50 µM
7) Cn1cc(C2=C(c3cccc(OC[C@@H](O)CO)c3)C(=O)NC2=O)c2ccccc21 = > 25 µM
8) CC1(C)OC(=S)N(c2ccccc2)C12C=Cc1ccccc1O2 (centres undefined) = > 100 µM
9) COc1ccc2c(c1)c1c(n2CCN(C)C)-c2ccccc2CC1 = 34.2 µM

----------
# Tested on: NCI/ADR-RES ovarian
# measurement_protocol: NCI tumour cell line growth inhibition, 48 h; in the data active means GI50 below about 0.43 µM; inactive means the rest
Where a SMILES comes first, the peptide text is derived from it. The star is where a group is joined. Palmitoyl = CCCCCCCCCCCCCCCC(=O)*
Outcome codes: t for active, f for inactive

1. C/C(=N/N=C(\[O-])c1ccncc1)C(F)(F)F.C/C(=N\N=C(/[O-])c1ccncc1)C(F)(F)F.[Ni+2] = f
2. CCCCCCCCCCCCCCCC(=O)N1CCCC1C(=O)NCC(=O)NC(Cc1ccccc1)C(=O)NC(C)C(=O)NC(CO)C(=O)NC(Cc1ccc(O)cc1)C(=O)NC(CCCCN)C(=O)NC(CC(C)C)C(=O)NC(CCCN=C(N)N)C(=O)N1CCCC1C(=O)NCC(N)=O (stereo not drawn) (Palmitoyl-PGFASYKLRPG-NH2; configuration not given here) = f
3. O=[N+]([O-])c1ccc(N2CCOCC2)c2c1no[n+]2[O-] = f
4. Cc1cccc2c3c(sc12)C(c1ccc(Cl)cc1)C(C#N)=C(N)O3 (stereo not drawn) = t
5. CCCCCO/N=C\c1c2c(O)c3c(O)c(C)c4c(c3c1O)C(=O)C(C)(O/C=C\C(OC)C(C)C(OC(C)=O)C(C)C(O)C(C)C(O)C(C)/C=C\C=C(\C)C(=O)N2)O4 (stereo not drawn) = f
6. COC(=O)[C@H]1CCCN1C(=O)[C@H]1CCCN1C(=O)[C@@H](Cc1c[nH]c2ccccc12)NC(=S)Nc1cc(C(F)(F)F)cc(C(F)(F)F)c1 = f
7. COc1ncnc(NS(=O)(=O)c2ccc(N=C3C(=O)N(CN4CCN(c5c(F)cc6c(=O)c(C(=O)O)cn(C7CC7)c6c5OC)CC4C)c4ccc(Br)cc43)cc2)c1OC (stereo not drawn) = f
8. COC1=C(OC)C(=O)C(SC/C=C(\C)CCCC(C)CCCC(C)CCCC(C)C)=CC1=O (stereo not drawn) = f
9. COC(=O)c1cc2c(cc1Cl)SC1=NN(C)C(N(C)C)N1S2(=O)=O (stereo not drawn) = f
10. Nc1nc(Nc2ccccc2SSc2ccccc2Nc2nc(N)nc(C(Cl)(Cl)Cl)n2)nc(C(Cl)(Cl)Cl)n1 = f
11. O=C1OC(C(O)CO)C(O)=C1O (stereo not drawn) = f
12. CC1=C(CC(=O)c2cccc([N+](=O)[O-])c2)C(=O)c2ccccc2C1=O = f
13. CCC1(O)C(=O)OCc2c1cc1n(c2=O)Cc2cc3c(NC(=O)CN)cccc3nc2-1 (stereo not drawn) = t
